This collection of values is drawn from PubChem BioAssay (NCI).

test system: SF-268 CNS; test: NCI tumour cell line growth inhibition, 384-well format
Parameter: GI50

Take a look at these entries with their results.
{"Compound structure string": "O=c1[nH]nc2c3c(cccc13)NC(CN1Cc3ccccc3C1)=N2", "Parameter": "GI50", "Meas value": "4680 nM"}
{"Compound structure string": "Cc1cc2c(C(N)=O)cccc2n1-c1nc2c(c(NCc3ccccc3)n1)CCCN2", "Parameter": "GI50", "Meas value": "174 nM"}
{"Compound structure string": "C[C@@H]1CCN(C(=O)CC#N)C[C@@H]1N(C)c1ncnc2[nH]ccc12", "Parameter": "GI50", "Meas value": "99800 nM"}

Okay, now this molecule:
The reported value for Cc1c(CN2CCC(Nc3ncnc4sc(CC(F)(F)F)cc34)CC2)ccc2c1cc(C#N)n2Cc1cn[nH]c1 in terms of GI50 is 1310 nM

---

system: CAKI-1 renal; experiment: NCI tumour cell line growth inhibition, 384-well format; in the data active = GI50 below about 0.43 µM; inactive = the rest
// classify into 1.0 (active), 0.0 (inactive)

{"Compound structure string": "C[C@@H]1CCN(C(=O)CC#N)C[C@@H]1N(C)c1ncnc2[nH]ccc12", "Class label": 0.0}
{"Compound structure string": "O=c1[nH]nc2c3c(cccc13)NC(CN1Cc3ccccc3C1)=N2", "Class label": 0.0}
{"Compound structure string": "Cc1c(CN2CCC(Nc3ncnc4sc(CC(F)(F)F)cc34)CC2)ccc2c1cc(C#N)n2Cc1cn[nH]c1", "Class label": 0.0}

Then this molecule:
## Task Field: outcome | Entry: Cc1cc2c(C(N)=O)cccc2n1-c1nc2c(c(NCc3ccccc3)n1)CCCN2
## Result 1.0

---

system: NCI-H322M lung; experiment: NCI tumour cell line growth inhibition, 384-well format; in the data active = GI50 below about 0.43 µM; inactive = the rest
// classify into true (1) (active), false (0) (inactive)

{"Compound structure string": "O=C(c1cc(-c2cc3c(cc2C(=O)N2Cc4ccccc4C[C@H]2CN2CCOCC2)OCO3)n2c1CCCC2)N(c1ccccc1)c1ccc(O)cc1", "Class label": "false (0)"}

## Task Field: outcome | Entry: Cc1cc2c(C(N)=O)cccc2n1-c1nc2c(c(NCc3ccccc3)n1)CCCN2
## Result true (1)

## Task Field: outcome | Entry: C#CC[C@H](c1nc2cc(Cl)ccc2c(=O)n1Nc1ccccc1)N(CCCN)C(=O)c1cccc(Cl)c1F
## Result true (1)

## Task Field: outcome | Entry: COC[C@H]1OC(=O)c2coc3c2[C@@]1(C)C1=C(C3=O)[C@@H]2CCC(=O)[C@@]2(C)C[C@H]1OC(C)=O
## Result false (0)

---

system: SK-MEL-5 melanoma; assay: NCI tumour cell line growth inhibition, 384-well format
Parameter: TGI (µM)
Unit µM implied. Number only.

Take a look at these entries with their results.
{"Compound structure string": "COC[C@H]1OC(=O)c2coc3c2[C@@]1(C)C1=C(C3=O)[C@@H]2CCC(=O)[C@@]2(C)C[C@H]1OC(C)=O", "Experimental target": "SK-MEL-5 melanoma", "Units of measure": "µM", "TGI": 27.9}
{"Compound structure string": "Cc1cc2c(C(N)=O)cccc2n1-c1nc2c(c(NCc3ccccc3)n1)CCCN2", "Experimental target": "SK-MEL-5 melanoma", "Units of measure": "µM", "TGI": 0.106}

Measured on SK-MEL-5 melanoma, O=C(c1cc(-c2cc3c(cc2C(=O)N2Cc4ccccc4C[C@H]2CN2CCOCC2)OCO3)n2c1CCCC2)N(c1ccccc1)c1ccc(O)cc1 has a documented TGI of 0.928

---

test system: HT29 colon; test: NCI tumour cell line growth inhibition, 384-well format; in the data active means GI50 below about 0.43 µM; inactive means the rest
// classify into active, inactive

A selection of reference data follows.
{"Compound structure string": "C#CC[C@H](c1nc2cc(Cl)ccc2c(=O)n1Nc1ccccc1)N(CCCN)C(=O)c1cccc(Cl)c1F", "Experimental target": "HT29 colon", "Class label": "active"}
{"Compound structure string": "O=C(c1cc(-c2cc3c(cc2C(=O)N2Cc4ccccc4C[C@H]2CN2CCOCC2)OCO3)n2c1CCCC2)N(c1ccccc1)c1ccc(O)cc1", "Experimental target": "HT29 colon", "Class label": "active"}
{"Compound structure string": "O=c1[nH]nc2c3c(cccc13)NC(CN1Cc3ccccc3C1)=N2", "Experimental target": "HT29 colon", "Class label": "inactive"}

Then this compound:
## Task Field: outcome | Entry: Cc1c(CN2CCC(Nc3ncnc4sc(CC(F)(F)F)cc34)CC2)ccc2c1cc(C#N)n2Cc1cn[nH]c1
## Result active

---

test system: PC-3 prostate; assay: NCI tumour cell line growth inhibition, 384-well format; in the data active = GI50 below about 0.43 µM; inactive = the rest
// classify into active, inactive

A selection of reference data follows.
{"Compound structure string": "Cc1cc2c(C(N)=O)cccc2n1-c1nc2c(c(NCc3ccccc3)n1)CCCN2", "Class label": "active"}
{"Compound structure string": "C[C@@H]1CCN(C(=O)CC#N)C[C@@H]1N(C)c1ncnc2[nH]ccc12", "Class label": "inactive"}
{"Compound structure string": "Cc1c(CN2CCC(Nc3ncnc4sc(CC(F)(F)F)cc34)CC2)ccc2c1cc(C#N)n2Cc1cn[nH]c1", "Class label": "inactive"}

Then this compound:
## Task Field: outcome | Entry: COC[C@H]1OC(=O)c2coc3c2[C@@]1(C)C1=C(C3=O)[C@@H]2CCC(=O)[C@@]2(C)C[C@H]1OC(C)=O
## Result inactive

---

system: HL-60(TB) leukemia; assay: NCI tumour cell line growth inhibition, 384-well format
# Lookup of reported TGI keyed by entry
Unit nM implied. Number only.

Take a look at these entries with their results.
{"Compound structure string": "Cc1c(CN2CCC(Nc3ncnc4sc(CC(F)(F)F)cc34)CC2)ccc2c1cc(C#N)n2Cc1cn[nH]c1", "Units of measure": "nM", "TGI": 1680}
{"Compound structure string": "Cc1cc2c(C(N)=O)cccc2n1-c1nc2c(c(NCc3ccccc3)n1)CCCN2", "Units of measure": "nM", "TGI": 300}

Okay, now this molecule:
The reported value for C#CC[C@H](c1nc2cc(Cl)ccc2c(=O)n1Nc1ccccc1)N(CCCN)C(=O)c1cccc(Cl)c1F in terms of TGI is 34.6
